targetOrSystem: UniProt:O00763
procedureText: ACC2 assay (spectrophotometric 384 well assay, NADH-linked kinetic method)
Type: biochemical
conditionInfo: hACC2 construct lacking 128 N-terminal amino acids; coupled lactate dehydrogenase/pyruvate kinase reaction, 340 nm, 25° C.
Define the label as class 1 when IC50 is strictly less than 400 nM and as class 0 in all remaining cases.

Before answering, review these 3 worked examples.
CC(=O)N[C@@H](C)c1ccc(O[C@@H]2CCN(c3ncnc(N4CC5COCC5C4)c3F)C2)cc1 (stereo partly drawn) | class 0
CNC(=O)N[C@@H](C)c1ccc(OC2CCN(c3ccnc(N4CCOCC4)n3)C2)cc1 (stereo partly drawn) | class 1
CC(=O)N[C@@H](C)c1ccc(O[C@@H]2CCN(c3ncc(C4CCC4)cn3)C2)cc1 | class 0

In: Field: below-cutoff. Rule: recorded IC50 strictly less than 400 nM. Subject: CC(=O)N[C@@H](C)c1ccc(O[C@@H]2CCN(c3ccnc(N4CCCC4(C)C)n3)C2)cc1
Out: class 0

In: Field: below-cutoff. Rule: recorded IC50 strictly less than 400 nM. Subject: CC(=O)N[C@@H](C)c1ccc(O[C@@H]2CCN(c3nc(N4CCCC4C)ncc3F)C2)cc1 (stereo partly drawn)
Out: class 1

In: Field: below-cutoff. Rule: recorded IC50 strictly less than 400 nM. Subject: CC(=O)N[C@@H](C)c1ccc(O[C@@H]2CCN(c3nc(N(C)C4CCCC4)ncc3F)C2)cc1
Out: class 1

In: Field: below-cutoff. Rule: recorded IC50 strictly less than 400 nM. Subject: CC(=O)N[C@@H](C)c1ccc(O[C@@H]2CCN(c3ncc(OCCC4CC4)cn3)C2)cc1
Out: class 0

In: Field: below-cutoff. Rule: recorded IC50 strictly less than 400 nM. Subject: COc1c(OCC(C)(C)O)ncnc1N1CC[C@@H](Oc2ccc([C@H](C)NC(C)=O)cc2)C1
Out: class 1

In: Field: below-cutoff. Rule: recorded IC50 strictly less than 400 nM. Subject: C[C@H](NC(=O)c1cn[nH]c1)c1ccc(OC2CCN(c3ncnc(OCC4CC4)c3F)C2)cc1 (stereo partly drawn)
Out: class 1

In: Field: below-cutoff. Rule: recorded IC50 strictly less than 400 nM. Subject: CC(=O)N[C@@H](C)c1ccc(O[C@@H]2CCN(c3nc(N4CC(F)(F)C(F)(F)C4)ncc3F)C2)cc1
Out: class 1

In: Field: below-cutoff. Rule: recorded IC50 strictly less than 400 nM. Subject: COc1c(OCC2CC2)ncnc1N1CC[C@@H](Oc2ccc([C@H](C)NC(=O)C3(C)CC3)cc2)C1
Out: class 1

In: Field: below-cutoff. Rule: recorded IC50 strictly less than 400 nM. Subject: CC(=O)N[C@@H](C)c1ccc(O[C@@H]2CCN(c3ncnc(O[C@@H]4CCOC4)c3F)C2)cc1
Out: class 1

In: Field: below-cutoff. Rule: recorded IC50 strictly less than 400 nM. Subject: CC(=O)N[C@@H](C)c1ccc(O[C@@H]2CCN(c3ncnc(N(C)CC4CC4)c3F)C2)cc1
Out: class 1

###

Entries annotated with measured pIC50
targetOrSystem: human ACC2 (Homo sapiens (Human))
Sequence (O00763 129-2458): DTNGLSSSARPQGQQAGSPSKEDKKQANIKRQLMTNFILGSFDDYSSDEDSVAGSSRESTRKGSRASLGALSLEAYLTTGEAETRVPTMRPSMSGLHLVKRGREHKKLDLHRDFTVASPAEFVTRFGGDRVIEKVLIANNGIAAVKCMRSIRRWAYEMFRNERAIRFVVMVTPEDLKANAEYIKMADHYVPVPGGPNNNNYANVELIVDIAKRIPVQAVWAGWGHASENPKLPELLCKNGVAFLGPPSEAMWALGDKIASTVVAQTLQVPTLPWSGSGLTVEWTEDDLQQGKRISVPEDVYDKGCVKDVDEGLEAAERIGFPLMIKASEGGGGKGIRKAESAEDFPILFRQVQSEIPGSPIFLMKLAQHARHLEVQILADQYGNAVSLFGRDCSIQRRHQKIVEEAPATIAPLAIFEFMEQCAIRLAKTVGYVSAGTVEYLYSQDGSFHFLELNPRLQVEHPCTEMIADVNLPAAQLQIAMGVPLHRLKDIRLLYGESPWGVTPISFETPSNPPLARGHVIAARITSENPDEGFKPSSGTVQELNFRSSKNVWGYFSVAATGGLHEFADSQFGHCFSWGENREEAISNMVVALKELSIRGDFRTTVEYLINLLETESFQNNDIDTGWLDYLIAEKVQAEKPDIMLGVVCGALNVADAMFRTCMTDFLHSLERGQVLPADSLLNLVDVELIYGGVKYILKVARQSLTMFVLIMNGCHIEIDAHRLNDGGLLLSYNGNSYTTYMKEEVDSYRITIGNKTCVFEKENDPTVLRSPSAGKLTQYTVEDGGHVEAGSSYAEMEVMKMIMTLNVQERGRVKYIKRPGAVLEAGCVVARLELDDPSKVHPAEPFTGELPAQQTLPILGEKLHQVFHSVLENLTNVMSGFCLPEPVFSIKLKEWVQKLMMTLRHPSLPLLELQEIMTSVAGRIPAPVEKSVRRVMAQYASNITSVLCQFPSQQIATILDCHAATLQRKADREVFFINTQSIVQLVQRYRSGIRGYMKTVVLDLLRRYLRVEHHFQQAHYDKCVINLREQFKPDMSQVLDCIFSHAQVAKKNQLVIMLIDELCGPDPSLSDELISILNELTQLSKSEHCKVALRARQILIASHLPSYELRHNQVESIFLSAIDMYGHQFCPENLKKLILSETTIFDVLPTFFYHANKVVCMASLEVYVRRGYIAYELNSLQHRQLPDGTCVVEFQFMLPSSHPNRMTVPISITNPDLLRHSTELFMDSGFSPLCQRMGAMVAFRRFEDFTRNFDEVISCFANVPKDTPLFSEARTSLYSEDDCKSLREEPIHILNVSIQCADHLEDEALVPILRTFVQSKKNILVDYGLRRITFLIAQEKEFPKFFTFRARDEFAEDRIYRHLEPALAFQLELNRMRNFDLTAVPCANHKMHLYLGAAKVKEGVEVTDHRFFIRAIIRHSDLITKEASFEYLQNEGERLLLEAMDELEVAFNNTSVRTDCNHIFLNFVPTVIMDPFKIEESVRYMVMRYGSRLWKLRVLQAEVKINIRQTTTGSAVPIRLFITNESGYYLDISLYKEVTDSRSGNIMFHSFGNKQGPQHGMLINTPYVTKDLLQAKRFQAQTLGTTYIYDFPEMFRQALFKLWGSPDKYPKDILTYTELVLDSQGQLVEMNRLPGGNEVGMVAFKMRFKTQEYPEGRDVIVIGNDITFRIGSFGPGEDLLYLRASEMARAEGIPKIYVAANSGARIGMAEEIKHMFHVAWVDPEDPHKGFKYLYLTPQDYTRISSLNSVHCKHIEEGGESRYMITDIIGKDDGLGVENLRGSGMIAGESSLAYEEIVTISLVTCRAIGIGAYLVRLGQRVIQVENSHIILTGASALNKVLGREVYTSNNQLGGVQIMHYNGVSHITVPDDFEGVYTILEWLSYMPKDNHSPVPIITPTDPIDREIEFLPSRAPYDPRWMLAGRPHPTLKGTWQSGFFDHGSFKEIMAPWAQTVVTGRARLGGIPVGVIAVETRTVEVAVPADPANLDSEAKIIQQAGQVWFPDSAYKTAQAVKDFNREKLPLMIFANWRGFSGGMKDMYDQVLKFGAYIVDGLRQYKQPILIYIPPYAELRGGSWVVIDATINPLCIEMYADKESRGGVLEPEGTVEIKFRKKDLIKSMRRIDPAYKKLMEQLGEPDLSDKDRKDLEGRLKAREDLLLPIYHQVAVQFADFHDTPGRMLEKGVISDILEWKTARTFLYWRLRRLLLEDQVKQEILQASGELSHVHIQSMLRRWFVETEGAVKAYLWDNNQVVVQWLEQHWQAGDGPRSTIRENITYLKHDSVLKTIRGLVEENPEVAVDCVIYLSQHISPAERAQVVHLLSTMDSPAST
procedureText: ACC2 assay (spectrophotometric 384 well assay, NADH-linked kinetic method)
Type: biochemical
conditionInfo: hACC2 construct lacking 128 N-terminal amino acids; coupled lactate dehydrogenase/pyruvate kinase reaction, 340 nm, 25° C.
# pIC50 = -log10(concentration in molar units)

CC(=O)N[C@@H](C)c1ccc(O[C@@H]2CCN(c3nc(NCC(F)F)ncc3F)C2)cc1 | 6.29

Here is another molecule to look at.
In: GET pIC50 | system: human ACC2 (Homo sapiens (Human)) | item: CC(=O)N[C@@H](C)c1ccc(O[C@@H]2CCN(c3cc(N4CCOCC4C)ncn3)C2)cc1 (stereo partly drawn)
Out: 6.33

###

targetOrSystem: UniProt:O00763
procedureText: ACC2 assay (spectrophotometric 384 well assay, NADH-linked kinetic method)
Type: biochemical
conditionInfo: hACC2 construct lacking 128 N-terminal amino acids; coupled lactate dehydrogenase/pyruvate kinase reaction, 340 nm, 25° C.
Method: Spectrophotometric 384 Well Assay Malonyl CoA formation by acetyl CoA carboxylases is stoichometrically linked to the consumption of ATP. ACC2 activity is measured in a NADH-linked kinetic method measuring ADP generated during the ACC reaction using a coupled lactate dehydrogenase/pyruvate kinase reaction. The protein is then expressed in insect cells using a baculoviral expression system. Protein purification is performed by anion exchange. […]
Entries annotated with measured pIC50
# pIC50 = -log10(concentration in molar units)

In: Could you please provide reported pIC50 for CC(=O)N[C@@H](C)c1ccc(O[C@@H]2CCN(c3ncnc(NCC4CCC4)c3Cl)C2)cc1 [Example 8.311] ? Thanks!
Out: 7.21

In: Could you please provide reported pIC50 for CC(=O)N[C@@H](C)c1ccc(O[C@@H]2CCN(c3ncnc(N4CCCC(F)(F)C4)c3F)C2)cc1 [Example 8.161] ? Thanks!
Out: 6.42

In: Could you please provide reported pIC50 for CC(=O)N[C@@H](C)c1ccc(O[C@@H]2CCN(c3ncc(C4CCCC4)cn3)C2)cc1 [Example 6.18] ? Thanks!
Out: 6.03

In: Could you please provide reported pIC50 for CC(=O)N[C@@H](C)c1ccc(O[C@@H]2CCN(c3ncnc(N4CCCC4(C)C)c3F)C2)cc1 [Example 8.250] ? Thanks!
Out: 6.45

###

targetOrSystem: UniProt O00763
procedureText: ACC2 assay (spectrophotometric 384 well assay, NADH-linked kinetic method)
Type: biochemical
conditionInfo: hACC2 construct lacking 128 N-terminal amino acids; coupled lactate dehydrogenase/pyruvate kinase reaction, 340 nm, 25° C.
pIC50: −log10 of the molar value.
Lab note: compare pIC50 against 7. Equal or greater, write yes (1). Smaller, write no (0).

CC(=O)N[C@@H](C)c1ccc(O[C@@H]2CCN(c3nc(N4CC(F)(F)C4)ncc3Cl)C2)cc1 | no (0)
CCN(C)c1nccc(N2CCC(Oc3ccc([C@H](C)NC(=O)c4sc(NC(=O)COC)nc4C)cc3)C2)n1 (stereo partly drawn) | no (0)
CC(=O)N[C@@H](C)c1ccc(O[C@@H]2CCN(c3ncc(C(C)(C)C)cn3)C2)cc1 | no (0)

In: In plain terms: is recorded pIC50 at least 7 for CC(=O)Nc1nc(C)c(C(=O)N[C@@H](C)c2ccc(OC3CCN(c4ncnc(OCC5CC5)c4F)C3)cc2)s1 (stereo partly drawn) ?
Out: yes (1)

In: In plain terms: is recorded pIC50 at least 7 for CCC(=O)Nc1nc(C)c(C(=O)N[C@@H](C)c2ccc(O[C@@H]3CCN(c4ncnc(OCC(C)(C)O)c4F)C3)cc2)s1 ?
Out: no (0)

In: In plain terms: is recorded pIC50 at least 7 for CCNC(=O)N[C@@H](C)c1ccc(OC2CCN(c3ccnc(N4CCOCC4)n3)C2)cc1 (stereo partly drawn) ?
Out: no (0)

In: In plain terms: is recorded pIC50 at least 7 for CC(=O)N[C@@H](C)c1ccc(O[C@@H]2CCN(c3nc(N(C)C4CCC4)ncc3F)C2)cc1 ?
Out: yes (1)

In: In plain terms: is recorded pIC50 at least 7 for CC(=O)N[C@@H](C)c1ccc(O[C@@H]2CCN(c3nc(N4C[C@@H]5C[C@H]4CO5)ncc3F)C2)cc1 ?
Out: no (0)

In: In plain terms: is recorded pIC50 at least 7 for CC(=O)N[C@@H](C)c1ccc(O[C@@H]2CCN(c3nc(NCC4CC4)ncc3F)C2)cc1 ?
Out: no (0)

In: In plain terms: is recorded pIC50 at least 7 for CC(=O)N[C@@H](C)c1ccc(O[C@@H]2CCN(c3nc(N(C)CCO)ncc3F)C2)cc1 ?
Out: no (0)

In: In plain terms: is recorded pIC50 at least 7 for CC(=O)N[C@@H](C)c1ccc(O[C@@H]2CCN(c3ncnc(N4CCC5(CC5)C4)c3F)C2)cc1 ?
Out: yes (1)

In: In plain terms: is recorded pIC50 at least 7 for COCCCN(C)c1ncc(Cl)c(N2CC[C@@H](Oc3ccc([C@H](C)NC(C)=O)cc3)C2)n1 ?
Out: no (0)

###

Entries annotated with measured pIC50
targetOrSystem: human ACC2 (Homo sapiens (Human))
procedureText: ACC2 assay (spectrophotometric 384 well assay, NADH-linked kinetic method)
Assay type: biochemical
conditionInfo: hACC2 construct lacking 128 N-terminal amino acids; coupled lactate dehydrogenase/pyruvate kinase reaction, 340 nm, 25° C.
Description: Spectrophotometric 384 Well Assay Malonyl CoA formation by acetyl CoA carboxylases is stoichometrically linked to the consumption of ATP. ACC2 activity is measured in a NADH-linked kinetic method measuring ADP generated during the ACC reaction using a coupled lactate dehydrogenase/pyruvate kinase reaction. The protein is then expressed in insect cells using a baculoviral expression system. Protein purification is performed by anion exchange. […]
# pIC50 = -log10(concentration in molar units)

Some solved entries appear below for comparison.
CC(=O)N[C@@H](C)c1ccc(O[C@@H]2CCN(c3nccc(N4CCC(C)(C)C4)n3)C2)cc1 [Example 8.81] | 6.01
CC(=O)N[C@@H](C)c1ccc(O[C@@H]2CCN(c3ncnc(N4C[C@@H]5CC[C@@H](C4)O5)c3F)C2)cc1 [Example 8.278] | 6.17
COc1c(OCC(F)F)ncnc1N1CC[C@@H](Oc2ccc([C@H](C)NC(C)=O)cc2)C1 [Example 7.54] | 6.79
CC(=O)N[C@@H](C)c1ccc(O[C@@H]2CCN(c3ncnc(C4CCCC4)c3F)C2)cc1 [Example 9.4] | 6.33
COC(=O)N[C@@H](C)c1ccc(OC2CCN(c3ncnc(OCC(C)(C)O)c3F)C2)cc1 (stereo partly shown) [Example 4.6] | 6.65

In: GET pIC50 | system: human ACC2 (Homo sapiens (Human)) | item: CC(=O)N[C@@H](C)c1ccc(O[C@@H]2CCN(c3nc(N(C)C(C)C)ncc3Cl)C2)cc1 [Example 8.141]
Out: 6.83

In: GET pIC50 | system: human ACC2 (Homo sapiens (Human)) | item: CC(=O)N[C@@H](C)c1ccc(O[C@@H]2CCN(c3ccnc(N4CCc5nocc5C4)n3)C2)cc1 [Example 8.246]
Out: 6.17

FYI, the data here is from patent US8962641B2.
